tested on: submitochondrial electron transport particles (ETP) having competent electron transport enzyme complex I; test: facilitated electron withdrawal bioassay with SOD-depleted submitochondrial electron transport particles (adrenochrome formation, absorbance at 480 nm); format: biochemical, bovine (beef heart); details: concentration giving a response three standard deviations above mean control; HEPES buffer pH 7.2, 1.5 mM epinephrine, 0.2 ug per ml antimycin A, 0.5 mg ETP, 125 uM NADH, 10 minute incubation
The entries below come with measured lowest observable effect concentration (LOEC) values attached.
Numbers only; they are read as µg/L.

# Molecule, Assay value
data = [
    ("O=S(=O)(O)c1ccccc1N=Nc1c(S(=O)(=O)O)cc2cc(S(=O)(=O)O)c(N=Nc3ccccc3S(=O)(=O)O)c(O)c2c1O", 320),
    ("O=[N+]([O-])c1cc[n+]([O-])c2ccccc12 [4-Nitroquinoline-N-oxide]", 1600),
    ("COc1cccc2c1C(=O)c1c(O)c3c(c(O)c1C2=O)C[C@@](O)(C(=O)CO)C[C@@H]3O[C@H]1C[C@H](N)[C@H](O)[C@H](C)O1", 6300),
]

Query block: Query: lowest observable effect concentration (LOEC); subject: C[n+]1ccc(-c2cc[n+](C)cc2)cc1
Result block: 3500

Query block: Any idea what its lowest observable effect concentration (LOEC) is? The molecule is c1cc[n+]2c(c1)-c1cccc[n+]1CC2
Result block: 1600
